Biological target: T1, IL23R_huFC (human, UniProt Q5VWK5 24-353)
T1 sequence (looked up): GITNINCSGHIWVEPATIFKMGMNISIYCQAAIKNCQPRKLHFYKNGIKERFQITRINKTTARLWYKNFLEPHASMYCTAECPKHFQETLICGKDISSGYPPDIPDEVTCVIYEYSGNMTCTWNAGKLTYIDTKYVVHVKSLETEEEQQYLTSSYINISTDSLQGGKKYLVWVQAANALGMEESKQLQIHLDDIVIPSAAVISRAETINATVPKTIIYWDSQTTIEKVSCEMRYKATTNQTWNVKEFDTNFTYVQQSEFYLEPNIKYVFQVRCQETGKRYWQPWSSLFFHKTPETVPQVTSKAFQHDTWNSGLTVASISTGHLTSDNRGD
Test: human ELISA vs IL-23
*1 amine or outer side, *2 acyl side, *3 side chain or, on linkers, in order; H or OH if unused. Bridges are numbered along the chain shown (N, C = ends). [ ]: non-standard residue; d: D form. Phe(4-OMe) = 4-methoxy-L-phenylalanine (O-methyl-L-tyrosine), COc1ccc(C[C@H](N[*:1])C(=O)[*:2])cc1; Phe(3,4-Cl2) = N[C@@H](Cc1ccc(Cl)c(Cl)c1)C(=O)O; 1Nal = N[C@@H](Cc1cccc2ccccc12)C(=O)O; 2Nal = N[C@@H](Cc1ccc2ccccc2c1)C(=O)O; AEF = NCCOc1ccc(C[C@H](N)C(=O)O)cc1; Chg = N[C@H](C(=O)O)C1CCCCC1; hLeu = CC(C)CC[C@H](N)C(=O)O; αMeK = C[C@](N)(CCCCN)C(=O)O; Abu = CC[C@H](N)C(=O)O; Aib = CC(C)(N)C(=O)O
Endpoint Name: IC50

[
  {
    "Binder": "Ac-[Abu]QTWQC[Phe(4-OMe)][1Nal][αMeK]ENG-NH2 (thioether 1-6) [Ac-Cyclo-[[Abu]-QTWQC]-[Phe(4-OMe)]-[1-Nal]-[α-MeLys]-ENG-NH2]",
    "Endpoint Name": "IC50",
    "Reading": "25 to 100 nM"
  }
]

Required: IC50, one value per binder below.
1. Ac-[Abu]QTWQC[AEF][Phe(3,4-Cl2)][Aib]ENN-NH2 (thioether 1-6) [Ac-Cyclo-[[Abu]-QTWQC]-[Phe[4-(2-aminoethoxy)]]-[Phe(3,4-Cl2)]-[Aib]-ENN-NH2]
2. XQTWQCFWXENG (as bracketed in name; thioether cyclo) [Ac-Cyclo-[[Abu]-QTWQC]-[Phe[4-(2-aminoethoxy)]]-W-[Orn]-ENG-NH2]
3. Ac-[Abu]QTWQCYW[hLeu]ENG-NH2 (thioether 1-6) [Ac-Cyclo-[[Abu]-QTWQC]-YW-[hLeu]-ENG-NH2]
4. Ac-[Abu]QTWQC[AEF]W[Chg]K(Ac)NG-NH2 (thioether 1-6) [Ac-Cyclo-[[Abu]-QTWQC]-[Phe[4-(2-aminoethoxy)]]-W-Chg-[Lys(Ac)]-NG-NH2]
5. Ac-[Abu]QTWQC[2Nal][2Nal][αMeK]K(Ac)NG-NH2 (thioether 1-6) [Ac-Cyclo-[[Abu]-QTWQC]-[2-Nal]-[2-Nal]-[α-MeLys]-[Lys(Ac)]-NG-NH2]

RESULT:
["25 to 100 nM", "25 to 100 nM", "25 to 100 nM", "25 to 100 nM", "25 to 100 nM"]

These entries and their values trace back to patent US20190300590A1.
